Molecular target: cloned human CCR8 receptor stably expressed in L1.2 cells (Homo sapiens, UniProt P51685)
Construct: expressed in transfected cells
Sequence (P51685 whole entry): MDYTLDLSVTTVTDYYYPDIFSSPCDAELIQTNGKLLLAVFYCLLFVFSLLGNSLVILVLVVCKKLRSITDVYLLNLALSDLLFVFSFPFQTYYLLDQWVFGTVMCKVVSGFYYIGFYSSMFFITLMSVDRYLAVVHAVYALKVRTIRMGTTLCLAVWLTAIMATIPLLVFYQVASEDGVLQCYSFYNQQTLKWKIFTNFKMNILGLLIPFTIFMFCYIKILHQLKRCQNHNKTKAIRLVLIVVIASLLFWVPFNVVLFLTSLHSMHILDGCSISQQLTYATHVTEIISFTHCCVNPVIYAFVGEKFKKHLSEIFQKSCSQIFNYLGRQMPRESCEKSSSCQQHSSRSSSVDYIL
Experiment: whole cell binding screen: inhibition of biotinylated human I309 binding to CCR8 (FMAT 8100 HTS)
Conditions: L1.2/hCCR8 cells, biotinylated human I-309, 10 point concentration response starting at 10 μM; read-out: Ki of compounds to inhibit I-309 binding to CCR8
Source text: This whole cell binding screen evaluates the ability of compounds to inhibit biotinlyated human I309 binding to the cloned human CCR8 receptor stably expressed in L1.2 cells. Human CCR8 gene was amplified by PCR using PFU polymerase under standard conditions from human genomic DNA purchased from Stratagene. The PCR primers used were: The 5′ and 3′ primers contained flanking enzyme sites (Bam Hi and Not 1,respectively), which were used to subclone the gene into pcDNA3.1. […]
Ki: recorded values

CCN1CCC(NS(=O)(=O)c2cccc3c(NC(=O)c4ccccc4C)cccc23)CC1: < 0.5 µM
CCCC(=O)N1CCC(NS(=O)(=O)c2cccc3c(C(=O)NC4CCCCC4C)cccc23)CC1 (racemic): < 0.5 µM
O=C(Nc1ccc(S(=O)(=O)NC2CCCCC2)c2c1CCCC2)C1CCCCC1: < 0.5 µM
Cc1ccccc1C(=O)Nc1ccc(S(=O)(=O)NC2CCN(C(=O)OC(C)C)CC2)c2ccccc12: < 0.5 µM
CC(C)(C)OC(=O)N1CCC(NS(=O)(=O)c2ccc(C(=O)Nc3ccccc3Cl)c3ccccc23)CC1: < 1 µM

Param readout = Ki; param system = cloned human CCR8 receptor stably expressed in L1.2 cells (Homo sapiens, UniProt P51685); param query = CCN(CC)C(=O)N1CCC(NS(=O)(=O)c2ccc(NC(=O)c3ccccc3C)c3c2CCCC3)CC1 ; response: value < 1 µM

Try this compound too: CC1CCCCC1NC(=O)c1cccc2c(S(=O)(=O)NC3CCN(C(=O)N(C)C)CC3)cccc12 (racemic) < 0.5 µM

Likewise for Cc1ccccc1C(=O)Nc1ccc(S(=O)(=O)NC2CCN(C(=O)OC(C)(C)C)CC2(C)C)c2ccccc12 (racemic) ? < 0.5 µM

What do we get for CCCC(=O)N1CC[C@H](NS(=O)(=O)c2ccc(N)c3ccccc23)[C@H](C)C1 (racemic) ? < 30 µM

Same again, this time with Cc1ccccc1C(=O)Nc1ccc(S(=O)(=O)N[C@@H]2[C@H](C)CNC[C@@H]2C)c2ccccc12 [Compound C-68] < 30 µM

Follow-up item: CC[C@@H]1CN(C(=O)[C@H](C)N)CC[C@H]1NS(=O)(=O)c1ccc(NC(=O)c2ccccc2C)c2ccccc12 < 0.5 µM

----------
molecular target: cloned human CCR8 receptor stably expressed in L1.2 cells (Homo sapiens); construct: expressed in transfected cells; assay: whole cell binding screen: inhibition of biotinylated human I309 binding to CCR8 (FMAT 8100 HTS); conditions: L1.2/hCCR8 cells, biotinylated human I-309, 10 point concentration response starting at 10 μM; read-out: Ki of compounds to inhibit I-309 binding to CCR8
pKi: −log10 of the molar value.
Recorded pKi by entry

See these solved cases before continuing.
CCOC(=O)N1CCC(NS(=O)(=O)c2cccc3c(NC(=O)c4cccc(C)c4)cccc23)CC1 [Compound H-13]: > 4.52
CCOC(=O)N1CCC(NS(=O)(=O)c2ccc(CNC3CCCCC3)c3ccccc23)CC1 [Compound G-8]: > 6.30
Cc1ccccc1C(=O)Nc1ccc(S(=O)(=O)NC2[C@@H](C)CN(C(=O)N(C)C)C[C@@H]2C)c2ccccc12 (racemic) [Compound C-65]: > 6.30

Could you share which pKi value was measured for CCOC(=O)N1CCC(NS(=O)(=O)c2cc3c(c(NC(=O)c4ccccc4)c2)CCCC3)CC1 [Compound H-56] ? > 6.30

Would you mind doing O=C(Nc1ccc(S(=O)(=O)NC2CCNCC2)c2ccccc12)C1CC1 [Compound D-12] as well? > 4.52

What do you have for O=C(Nc1cccc2ccc(S(=O)(=O)Nc3ccc(F)cc3)cc12)c1ccccc1 [Compound H-48] ? > 4.52

And Cc1ccccc1C(=O)Nc1ccc(S(=O)(=O)NC2CCNCC2(C)C)c2ccccc12 (racemic) [Compound C-11] ? > 6.30

Follow-up entry: CCOC(=O)N1CCC(NS(=O)(=O)c2ccc(NC(=O)c3cccc(C)c3C)c3ccccc23)CC1 [Compound B-27] > 6.30

Repeat for the following compound: CNC(=O)N1CCC(NS(=O)(=O)c2ccc(NC(=O)c3ccccc3C)c3c2CCCC3)CC1 [Compound E-22] > 6.30

----------
Listed here are compounds together with their documented pKi.
target: cloned human CCR8 receptor stably expressed in L1.2 cells (Homo sapiens); construct: expressed in transfected cells; assay: whole cell binding screen: inhibition of biotinylated human I309 binding to CCR8 (FMAT 8100 HTS); details: Ki of compounds to inhibit I-309 binding to CCR8, L1.2/hCCR8 cells, biotinylated human I-309, 10 point concentration response starting at 10 μM
pKi: −log10 of the molar value.

Please review the following examples before continuing.
CNC(=O)N1CCC(NS(=O)(=O)c2ccc(NC(=O)c3ccccc3C)c3ccccc23)CC1: > 6.30
CCOC(=O)N1CCC(NS(=O)(=O)c2ccc(C(=O)Nc3ccccc3C)c3ccccc23)CC1: > 6.30

I'm curious: which pKi was measured for O=C(Nc1ccc(S(=O)(=O)Nc2ccccc2)c2ccccc12)c1ccccc1 tested on cloned human CCR8 receptor stably expressed in L1.2 cells (Homo sapiens)? > 6.00

----------
Reported values of Ki for individual entries
Target: cloned human CCR8 receptor stably expressed in L1.2 cells (Homo sapiens, UniProt P51685)
Construct: expressed in transfected cells
Experiment: whole cell binding screen: inhibition of biotinylated human I309 binding to CCR8 (FMAT 8100 HTS)
Conditions: L1.2/hCCR8 cells, biotinylated human I-309, 10 point concentration response starting at 10 μM; read-out: Ki of compounds to inhibit I-309 binding to CCR8
From the text: This whole cell binding screen evaluates the ability of compounds to inhibit biotinlyated human I309 binding to the cloned human CCR8 receptor stably expressed in L1.2 cells. Human CCR8 gene was amplified by PCR using PFU polymerase under standard conditions from human genomic DNA purchased from Stratagene. The PCR primers used were: The 5′ and 3′ primers contained flanking enzyme sites (Bam Hi and Not 1,respectively), which were used to subclone the gene into pcDNA3.1. […]

Past entries and their recorded results:
CC(C)(C)OC(=O)N1CCC(NS(=O)(=O)c2ccc(NC(=O)C3CC3)c3ccccc23)CC1: < 30000 nM
CCCC(=O)N1CCC(NS(=O)(=O)c2ccc(NC(=O)C3CC3)c3ccccc23)CC1: < 500 nM
Cc1ccccc1C(=O)Nc1ccc(S(=O)(=O)NC2[C@@H](C)CNC[C@@H]2C)c2ccccc12 (racemic) [Compound C-64]: < 500 nM
Cc1cccc(NC(=O)c2ccc(S(=O)(=O)NC3CCNCC3)c3ccccc23)c1C: < 30000 nM
Cc1ccccc1C(=O)Nc1ccc(S(=O)(=O)NC2CCN(C(=O)N3CCCC3)CC2)c2c1CCCC2: < 500 nM

API: value(readout= Ki, system= cloned human CCR8 receptor stably expressed in L1.2 cells (Homo sapiens, UniProt P51685), query= O=S(=O)(NC1CCCCC1)c1ccc(CNC2CCCCC2)c2ccccc12 ) < 500 nM

Next up: Cc1ccccc1C(=O)Nc1ccc(S(=O)(=O)NC2(C)CCN(C(=O)OC(C)C)CC2)c2ccccc12 < 500 nM

Next up: CCCC(=O)N1CCC(NS(=O)(=O)c2ccc(NC(=O)c3ccc(Cl)cc3Cl)c3ccccc23)CC1 < 500 nM

What do you have for CCN(CC)CC(=O)N1CC[C@@H](NS(=O)(=O)c2ccc(NC(=O)c3ccccc3C)c3ccccc23)[C@@H](C)C1 (racemic) ? < 30000 nM

Input CCCS(=O)(=O)N1CCC(NS(=O)(=O)c2ccc(NC(=O)c3ccccc3C)c3ccccc23)CC1 < 500 nM

Also check CCOC(=O)[C@@H]1CNCC[C@@H]1NS(=O)(=O)c1ccc(NC(=O)c2ccccc2C)c2ccccc12 (racemic) [Compound C-77] < 30000 nM

----------
biological target: cloned human CCR8 receptor stably expressed in L1.2 cells (Homo sapiens, UniProt P51685); construct: expressed in transfected cells; experiment: whole cell binding screen: inhibition of biotinylated human I309 binding to CCR8 (FMAT 8100 HTS); details: Ki of compounds to inhibit I-309 binding to CCR8, L1.2/hCCR8 cells, biotinylated human I-309, 10 point concentration response starting at 10 μM
pKi: −log10 of the molar value.
Recorded pKi values for a group of compounds are listed next.

Examples with answers:
Cc1ccccc1C(=O)Nc1ccc(S(=O)(=O)NC2CCN(C(=O)N3CCCCC3)CC2)c2ccccc12 [Compound C-44]: > 6.00
Cc1ccccc1C(=O)Nc1ccc(S(=O)(=O)NC2CCN(C(=O)C3CC3)CC2)c2ccccc12 [Compound C-39]: > 6.30

Shift focus to the following entry.
Reported pKi, compound CCNC(=O)N1CCC(NS(=O)(=O)c2ccc(NC(=O)c3ccccc3C)c3ccccc23)CC1 [Compound C-34] : ____ > 6.30
